# Test system: NCI-H23 lung
# protocol_details: NCI-60 one-dose screen, 48 h
# test_context: 10 µM unless noted
The panel holds about 83,000 compounds, 20% with a hit somewhere; the sample as a whole holds those more often. Calls of active or inactive are those of the source. The calls were made as follows: active = growth percent below 10; inactive = the rest.
A correct response names exactly one class from active, inactive

Check the results log: what was the call for OCCN=Cc1c[nH]c2ccccc12 ?
inactive

Check the results log: what was the call for COc1ccc2c(c1)c(-c1nc(-c3cn(C)c4ncccc34)cs1)cn2CCCCN1CCOCC1 ?
inactive

Check the results log: what was the call for COc1cc(C2C3=C(CCCC3=O)N(CCO)c3cc4c(cc32)CCC4)cc(OC)c1OC (configuration not stated) ?
inactive

Check the results log: what was the call for COc1c(O)cc2c(c1OC)-c1ccc(SC)c(=O)cc1C(NC(C)=O)CC2 (configuration not stated) ?
inactive

Check the results log: what was the call for CNC(=O)O/N=C(\SC)C(=O)N(C)C ?
inactive

Check the results log: what was the call for CC(=O)Nc1nc2c(s1)C1=CC[C@H]3[C@@H]4CC[C@H](OC(C)=O)[C@@]4(C)CC[C@@H]3[C@@]1(C)CC2 ?
inactive

Check the results log: what was the call for CCCCOCCOP(=O)(OCCOCCCC)OCCOCCCC ?
inactive

Check the results log: what was the call for CCN(CC)CCn1c(=O)n(C)c2ccccc21 ?
inactive

Check the results log: what was the call for C[C@]12CCC(=O)C[C@@H]1CC[C@@H]1[C@@H]2CC[C@]2(C)[C@@H](OC(=O)N(CCCl)N=O)CC[C@@H]12 ?
inactive

Check the results log: what was the call for O=C1CN2CCC1CC2 ?
inactive

Check the results log: what was the call for COC12CC3(C)C(C4=CC(=O)OC4)CCC3(O)C3CCC4=CC(=O)CCC4(CO1)C32 (configuration not stated) ?
inactive

Check the results log: what was the call for Nc1ccc2c(c1)Cc1cc(N)ccc1-2 ?
inactive

Check the results log: what was the call for C[Se]/C=C1/C(=O)N(c2c(Cl)cccc2Cl)c2ccccc21 ?
inactive

Check the results log: what was the call for O=S(OO)c1cc(Cl)c(O)c(Cl)c1 (configuration not stated) ?
inactive

Check the results log: what was the call for C[N+]12CCC34C5=CC(=O)C(=O)C=C5[N+]5(C)C(=O)CC6OCC=C(C1)C(CC32)C6C45 (configuration not stated) ?
inactive

Check the results log: what was the call for CC12CCC3C(CCC4CC(O)CCC43C)C1CCC2=O (configuration not stated) ?
inactive

Check the results log: what was the call for CC[C@H](C)[C@H]1O[C@]2(C=C[C@@H]1C)C[C@@H]1C[C@@H](C/C=C(\C)[C@@H](O[C@H]3C[C@H](OC)[C@@H](O[C@H]4C[C@H](OC)[C@@H](NC)[C@H](C)O4)[C@H](C)O3)[C@@H](C)/C=C/C=C3\CO[C@@H]4[C@H](O)C(C)=C[C@@H](C(=O)O1)[C@]34O)O2 ?
active

Check the results log: what was the call for N#CC(N)c1ccccc1 (configuration not stated) ?
inactive

Check the results log: what was the call for O=C1CCCCC1CN1CCCCC1 (configuration not stated) ?
inactive

Check the results log: what was the call for CN1CCc2cc3c(cc2C1O)OCO3 (configuration not stated) ?
inactive

Check the results log: what was the call for CO[C@@H]([CH2][Hg][O]C(=O)c1ccccc1)[C@@H]([CH2][Hg][O]C(=O)c1ccccc1)OC ?
inactive

Check the results log: what was the call for CC1(C)S[C@H]2CC[C@H]3OC(=O)[C@@H]1N23 ?
inactive

Check the results log: what was the call for CC12CCC3C4CCC(=O)C=C4CCC3C1CC1CC(=O)OC12 (configuration not stated) ?
inactive

Check the results log: what was the call for C#COc1cccc(Nc2ncnc3cc(NC(=O)CF)ccc23)c1 ?
inactive

Check the results log: what was the call for CC(Oc1ccc(-c2ccccc2)cc1)C(=O)O (configuration not stated) ?
inactive

Check the results log: what was the call for Cn1cc(-c2csc(-c3cn(CCCCN4CCOCC4)c4ccc(F)cc34)n2)c2cccnc21 ?
inactive

Check the results log: what was the call for CCCCn1c(=O)c(C(=O)NCc2ccccc2Cl)c(O)c2ccccc21 ?
inactive

Check the results log: what was the call for CC(=O)C(N)Cc1ccccc1 (configuration not stated) ?
inactive

Check the results log: what was the call for C/C(=C(\c1ccc(OCCN2CCOCC2)cc1)c1ccc(OC(=O)Cc2ccccc2)cc1)c1ccc(Cl)cc1 ?
inactive

Check the results log: what was the call for CC[C@H](C)[C@H](NC(=O)[C@H]1CCCCN1C)C(=O)N(C)[C@H](CCc1nc(C(=O)N[C@@H](Cc2ccccc2)C[C@H](C)C(=O)O)cs1)C(C)C ?
inactive

Check the results log: what was the call for O=C(Cc1ccccc1)NC(O)C(Cl)(Cl)Cl (configuration not stated) ?
inactive

Check the results log: what was the call for CCCC[C@H]1C(=O)O[C@H](C)[C@H](NC(=O)c2cccc(NC=O)c2O)C(=O)O[C@@H](C)[C@@H]1OC(=O)CC(C)C ?
inactive

Check the results log: what was the call for O=C(NC(Cl)=C(Cl)Cl)P(=O)(c1ccccc1)c1ccccc1 ?
inactive

Check the results log: what was the call for CC(=O)OC1CC2(O)C(CCC3(C)C(c4ccc(=O)oc4)CCC32O)C2(C)CCC(OC3OC(CO)C(O)C(O)C3O)C=C12 (configuration not stated) ?
active

Check the results log: what was the call for NC1CN2CCC1CC2 (configuration not stated) ?
inactive

Check the results log: what was the call for CC/C(Cc1ccccc1)=C(\c1ccc(OCCN2CCCC2)cc1)c1ccc(OC(=O)NCc2ccccc2)cc1 ?
inactive

Check the results log: what was the call for CC[PH+](CC)CC.O=COC1OC([S-])C(OC=O)C(OC=O)C1OC=O.[Au+] (configuration not stated) ?
active

These measurements were taken from PubChem BioAssay (NCI).
